Attribution: BindingDB's records for doi:10.1021/jm034206x

Listing of recorded pIC50 by entry.
Molecular target: Replication protein E1 (Human papillomavirus type 6)
Assay: Ability to inhibit in vitro ATPase activity of human papillomavirus (HPV6) E1 helicase
pIC50: −log10 of the molar value.

compound	relation qualifier	pIC50
CC(=O)NCCNC(=O)Cc1ccc(-c2ccc(S(=O)(=O)CC(=O)O)cc2)cc1	=	5.72
O=C(O)CS(=O)(=O)c1ccc2ccccc2c1	=	4.40
CC(C(=O)O)S(=O)(=O)c1ccc(-c2ccccc2)cc1 (stereo not drawn)	=	4.77
O=C(O)CS(=O)(=O)c1ccc(Sc2ccccc2)cc1	<	4.10
O=C(O)CS(=O)(=O)c1ccc(-c2cccc(C(=O)Nc3ccccc3)c2)cc1	=	6.38
O=C(O)CS(=O)(=O)c1ccc(-c2cccc3ccccc23)cc1	=	5.27
O=C(O)CS(=O)(=O)c1ccc(-c2ccc(CC(=O)Nc3ccccc3)cc2)cc1	=	6.80
Cc1cccc(CNC(=O)c2cccc(-c3ccc(S(=O)(=O)CC(=O)O)cc3)c2)c1	=	7.57
COc1ccc(-c2ccc(S(=O)(=O)CC(=O)O)cc2)cc1	=	5.89
O=C(O)CS(=O)(=O)c1ccc(-c2ccc(C(=O)NCc3ccccc3)cc2)cc1	=	6.29
C[C@@H](NC(=O)c1cccc(-c2ccc(S(=O)(=O)CC(=O)O)cc2)c1)c1ccccc1	=	7.37
O=C(O)CS(=O)(=O)c1ccc(-c2ccc(CC(=O)NCc3ccccc3)cc2)cc1	=	6.47
Cc1nc(-c2ccc(S(=O)(=O)CC(=O)O)cc2)cs1	=	4.52
CC(C)(C(=O)O)S(=O)(=O)c1ccc(-c2ccccc2)cc1	<	4.10
O=C(O)CS(=O)(=O)c1ccc(NCCc2ccccc2)cc1	=	4.17
O=C(O)CS(=O)(=O)c1ccc(-c2ccc(C(=O)N(Cc3ccccc3)Cc3ccccc3)cc2)cc1	=	5.96
O=C(O)CS(=O)(=O)c1ccc(-c2cccc(C(=O)N3CCOCC3)c2)cc1	=	4.66
O=C(O)CS(=O)(=O)c1cccc(-c2ccccc2)c1	<	4.10
CN(C(=O)c1ccc(-c2ccc(S(=O)(=O)CC(=O)O)cc2)cc1)c1ccccc1	=	5.32
CS(=O)(=O)c1ccc(-c2ccccc2)cc1	<	4.10
O=C(NCc1cccc2ccccc12)c1cccc(-c2ccc(C(=O)C(F)(F)P(=O)(O)O)cc2)c1	=	6.13
O=C(O)CS(=O)(=O)c1ccc(-c2ccc(C(=O)Nc3ccccc3)cc2)cc1	=	5.89
O=C(O)CS(=O)(=O)c1ccc(-c2ccc(C(=O)N3CCCCC3)cc2)cc1	=	5.48
O=C(O)CS(=O)(=O)c1ccc(-c2cccc(CC(=O)Nc3ccccc3)c2)cc1	=	6.96
Cc1ccccc1CNC(=O)c1cccc(-c2ccc(S(=O)(=O)CC(=O)O)cc2)c1	=	7.49
COc1cccc(-c2ccc(S(=O)(=O)CC(=O)O)cc2)c1	=	5.40
O=C(O)CS(=O)(=O)c1ccc(-c2cccc(CC(=O)NCc3ccccc3)c2)cc1	=	6.52
O=C(O)CS(=O)(=O)c1ccc(-c2nccs2)cc1	=	4.70
O=C(O)C(F)S(=O)(=O)c1ccc(-c2ccccc2)cc1 (stereo not drawn)	=	5.19
O=C(O)CS(=O)(=O)c1ccc(-c2ccc3c(c2)OCO3)cc1	=	5.89
CS(=O)(=O)c1ccc(-c2cccc(C(=O)NCc3cccc4ccccc34)c2)cc1	<	4.10
C[C@H](NC(=O)c1cccc(-c2ccc(S(=O)(=O)CC(=O)O)cc2)c1)c1ccccc1	=	5.77
O=C(O)CS(=O)(=O)c1ccc(-c2cccc(CC(=O)N[C@H]3CCc4ccccc43)c2)cc1	=	7.70
O=C(O)CS(=O)(=O)c1cccc(COc2ccccc2)c1	<	4.10
Cc1cccc(CNC(=O)c2cccc(-c3ccc(S(=O)(=O)CC(=O)O)cc3)c2)c1C	=	8.04
NC(=O)CS(=O)(=O)c1ccc(-c2ccccc2)cc1 [2-(Biphenyl-4-sulfonyl)-acetamide]	<	4.10
O=S(=O)(O)CS(=O)(=O)c1ccc(-c2ccccc2)cc1	=	4.49
O=C(O)CSc1ccc(-c2ccccc2)cc1	<	4.10
